# System: Leishmania donovani
# ASSAY PROTOCOL: Antileishmanial activity against amastigote stage of Leishmania donovani MHOM/NP/02/BPK282/0c14 infected in human THP1 cells assessed as parasite growth inhibition after 72 hrs by Giemsa staining-based assay
# Format: functional, organism-based
# CONDITIONS USED: MHOM/NP/02/BPK282/0c14, THP-1, 72 h

STRUCTURE | TARGET OF ASSAY | IC50 [µM]
COc1cc(OCC=C(C)C)ccc1C(=O)/C=C/c1ccc([N+](=O)[O-])cc1 | Leishmania donovani | 14
C#CCOc1ccc(C(=O)/C=C/c2ccc(F)cc2)c(OCC#C)c1 | Leishmania donovani | 4.5

###

Below, each entry is listed alongside its reported selectivity ratio.
# ASSAY PROTOCOL: Safety index, ratio of test compound CC50 to amphotericin B CC50 for African green monkey Vero cells
# Format: ADME, cell-based
# CONDITIONS USED: chlorocebus sabaeus

STRUCTURE | selectivity ratio
C#CCOc1ccc(C(=O)/C=C/c2ccc(F)cc2)c(OCC#C)c1 | 3
COc1cc(OCC=C(C)C)ccc1C(=O)/C=C/c1ccc([N+](=O)[O-])cc1 | 3

###

# ASSAY PROTOCOL: Selectivity index, ratio of CC50 for human THP1 cells to IC50 for Leishmania donovani MHOM/NP/02/BPK282/0c14
# Type: toxicity
# CONDITIONS USED: THP-1 cells, read-out: Ratio CC50/IC50
METRIC: selectivity ratio

STRUCTURE | REPORTED VALUE
C#CCOc1ccc(C(=O)/C=C/c2cccnc2)c(O)c1 | 1.4
C#CCOc1ccc(C(=O)/C=C/c2ccc(F)cc2)c(OCC#C)c1 | 48
C#CCOc1ccc(C(=O)/C=C/c2ccncc2)c(OC)c1 | 4
C[C@@H]1[C@H](O)[C@@H](C)/C=C/C=C/C=C/C=C/C=C/C=C/C=C/[C@H](O[C@@H]2O[C@H](C)[C@@H](O)[C@H](N)[C@@H]2O)C[C@@H]2O[C@](O)(C[C@@H](O)C[C@@H](O)[C@H](O)CC[C@@H](O)C[C@@H](O)CC(=O)O[C@H]1C)C[C@H](O)[C@H]2C(=O)O | 666
C#CCOc1ccc(C(=O)/C=C/c2ccncc2)c(OCC#C)c1 | 1.6
C#CCOc1ccc(C(=O)/C=C/c2ccc(Br)cc2)c(OCC#C)c1 | 1.6
COc1cc(OCC=C(C)C)ccc1C(=O)/C=C/c1ccc(Br)cc1 | 6.3
C#CCOc1ccc(C(=O)/C=C/c2ccc(Br)cc2)c(OC)c1 | 4.6
C#CCOc1ccc(C(=O)/C=C/c2cccnc2)c(OCC#C)c1 | 3.8

###

# ASSAY PROTOCOL: Cytotoxicity against human THP1 cells after 72 hrs by Alamar blue assay
# Assay type: cell-based
# CONDITIONS USED: THP-1 cells
METRIC: log10 CC50 at 72 h (log10 of the value in µM)

COMPOUND | log10 CC50 at 72 h
COc1cc(OCC=C(C)C)ccc1C(=O)/C=C/c1ccc([N+](=O)[O-])cc1 | 2.78
COc1cc(OCC=C(C)C)ccc1C(=O)/C=C/c1ccc(Br)cc1 | 2.00
C#CCOc1ccc(C(=O)/C=C/c2cccnc2)c(OCC#C)c1 | 1.18
C#CCOc1ccc(C(=O)/C=C/c2ccc(Br)cc2)c(OCC#C)c1 | 1.40
CC(C)=CCOc1ccc(C(=O)/C=C/c2ccncc2)c(O)c1 | 1.20
COc1cc(OCC=C(C)C)ccc1C(=O)/C=C/c1ccccc1 | 1.70
COc1cc(OCC=C(C)C)ccc1C(=O)/C=C/c1ccncc1 | 1.20
C#CCOc1ccc(C(=O)/C=C/c2ccncc2)c(OC)c1 | 1.20
COc1cc(OCC=C(C)C)ccc1C(=O)/C=C/c1cccnc1 | 1.60
C#CCOc1ccc(C(=O)/C=C/c2ccc(F)cc2)c(OCC#C)c1 | 2.78
COc1cc(OCC=C(C)C)ccc1C(=O)/C=C/c1cc(OC)c(OC)c(OC)c1 | 1.40
C#CCOc1ccc(C(=O)/C=C/c2cccnc2)c(OC)c1 | 1.20
C[C@@H]1[C@H](O)[C@@H](C)/C=C/C=C/C=C/C=C/C=C/C=C/C=C/[C@H](O[C@@H]2O[C@H](C)[C@@H](O)[C@H](N)[C@@H]2O)C[C@@H]2O[C@](O)(C[C@@H](O)C[C@@H](O)[C@H](O)CC[C@@H](O)C[C@@H](O)CC(=O)O[C@H]1C)C[C@H](O)[C@H]2C(=O)O [AMPHOTERICIN B] | 2.30
CC(C)=CCOc1ccc(C(=O)/C=C/c2cccnc2)c(O)c1 | 2.00
C#CCOc1ccc(C(=O)/C=C/c2cccnc2)c(O)c1 | 1.40
C#CCOc1ccc(C(=O)/C=C/c2ccc(Br)cc2)c(OC)c1 | 2.00
C#CCOc1ccc(C(=O)/C=C/c2ccncc2)c(OCC#C)c1 | 1.04
